- System: intracellular phosphorylation of EGFR (Tyr1068) in PC-9 cells (Homo sapiens, UniProt P00533, DEL746-750)
- Sequence (P00533 with tags, fused parts or gaps DEL746-750): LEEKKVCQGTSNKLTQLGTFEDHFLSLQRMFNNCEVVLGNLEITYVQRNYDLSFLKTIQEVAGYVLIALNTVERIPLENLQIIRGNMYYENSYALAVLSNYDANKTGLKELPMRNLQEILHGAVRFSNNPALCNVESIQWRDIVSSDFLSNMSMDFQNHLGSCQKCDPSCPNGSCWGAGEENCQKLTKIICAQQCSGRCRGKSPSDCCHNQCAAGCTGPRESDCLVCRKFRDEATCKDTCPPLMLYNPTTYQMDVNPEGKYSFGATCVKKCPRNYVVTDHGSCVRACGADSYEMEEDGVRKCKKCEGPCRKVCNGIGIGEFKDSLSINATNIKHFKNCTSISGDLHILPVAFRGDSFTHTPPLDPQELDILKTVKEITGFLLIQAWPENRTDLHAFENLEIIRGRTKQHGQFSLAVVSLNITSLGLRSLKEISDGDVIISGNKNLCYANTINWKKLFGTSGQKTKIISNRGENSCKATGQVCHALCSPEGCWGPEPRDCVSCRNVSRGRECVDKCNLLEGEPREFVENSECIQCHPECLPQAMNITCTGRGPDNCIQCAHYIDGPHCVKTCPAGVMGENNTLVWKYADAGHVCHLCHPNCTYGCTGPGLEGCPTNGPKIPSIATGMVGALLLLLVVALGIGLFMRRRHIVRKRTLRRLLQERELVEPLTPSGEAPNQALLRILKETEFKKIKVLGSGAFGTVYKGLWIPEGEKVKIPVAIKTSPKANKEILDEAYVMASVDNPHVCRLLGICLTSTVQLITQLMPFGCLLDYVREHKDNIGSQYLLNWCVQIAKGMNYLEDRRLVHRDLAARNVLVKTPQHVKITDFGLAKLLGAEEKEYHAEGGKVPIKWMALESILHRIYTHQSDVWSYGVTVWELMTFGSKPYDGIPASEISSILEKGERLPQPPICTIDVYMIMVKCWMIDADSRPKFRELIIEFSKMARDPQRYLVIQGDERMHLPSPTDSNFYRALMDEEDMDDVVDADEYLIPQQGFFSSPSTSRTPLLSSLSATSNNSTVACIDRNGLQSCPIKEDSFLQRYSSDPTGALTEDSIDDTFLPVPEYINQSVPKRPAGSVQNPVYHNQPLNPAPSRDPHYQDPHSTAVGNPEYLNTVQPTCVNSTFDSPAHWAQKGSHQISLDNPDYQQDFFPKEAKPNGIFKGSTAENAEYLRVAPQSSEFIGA
- Assay method text: PC-9 pEGFR AlphaLISA assay
- Condition set: 4 hours incubation, read-out: Phos EGFR PC9 IC50
Reported metric: IC50

[[record]]
molecule = "C[C@H]1COCC[C@@H]1Oc1cc(-c2cnn(C)c2)cc2ncnc(Nc3ccc4ncsc4c3)c12 (racemic)"
measured_result = "≤ 10 nM"


Fill blank: measured IC50 of the molecule Cn1cc(-c2cc(OC3CCOC3)c3c(Nc4ccc5ncsc5c4)ncnc3c2)cn1 (stereo not shown) is ____.
10.1 to 50 nM

Fill blank: measured IC50 of the molecule Cn1cc(-c2cc(OCC#N)c3c(Nc4ccc5ncsc5c4)ncnc3c2)cn1 is ____.
10.1 to 50 nM

Fill blank: measured IC50 of the molecule COc1cn(C)nc1-c1cc(O[C@H](C)C2COC2)c2c(Nc3ccc4ncsc4c3F)ncnc2c1 (single isomer, unassigned) [Example 81] is ____.
10.1 to 50 nM

Fill blank: measured IC50 of the molecule CN(C)C[C@H](Oc1cc(-c2cnn(C)c2)cc2ncnc(Nc3ccc4ncsc4c3)c12)C(F)(F)F (single isomer, unassigned) [Example 179] is ____.
> 50.1 nM

Fill blank: measured IC50 of the molecule Cn1cc(-c2cc(O[C@H]3CC[C@H](O)CC3)c3c(Nc4ccc5ncsc5c4)ncnc3c2)cn1 is ____.
≤ 10 nM

Fill blank: measured IC50 of the molecule CO[C@H]1COC[C@@H]1Oc1cc(-c2cnn(C)c2)cc2ncnc(Nc3ccc4ncsc4c3)c12 (single isomer, unassigned) [Example A32] is ____.
10.1 to 50 nM

Fill blank: measured IC50 of the molecule Cn1cc(-c2cc(O[C@H]3CCNC[C@@H]3F)c3c(Nc4ccc5ncsc5c4)ncnc3c2)c(OC(F)F)n1 (racemic) is ____.
≤ 10 nM

Fill blank: measured IC50 of the molecule C[C@@H]1CNCCN1c1cc(O[C@H](C)C2COC2)c2c(Nc3ccc4ncsc4c3F)ncnc2c1 (single isomer, unassigned) [Example 104] is ____.
10.1 to 50 nM

====

- System: EGFR (d746-750) (Homo sapiens, UniProt P00533, DEL746-750)
- Construct: purchased SignalChem E10-122JG
- Sequence (P00533 with tags, fused parts or gaps DEL746-750 limits assumed): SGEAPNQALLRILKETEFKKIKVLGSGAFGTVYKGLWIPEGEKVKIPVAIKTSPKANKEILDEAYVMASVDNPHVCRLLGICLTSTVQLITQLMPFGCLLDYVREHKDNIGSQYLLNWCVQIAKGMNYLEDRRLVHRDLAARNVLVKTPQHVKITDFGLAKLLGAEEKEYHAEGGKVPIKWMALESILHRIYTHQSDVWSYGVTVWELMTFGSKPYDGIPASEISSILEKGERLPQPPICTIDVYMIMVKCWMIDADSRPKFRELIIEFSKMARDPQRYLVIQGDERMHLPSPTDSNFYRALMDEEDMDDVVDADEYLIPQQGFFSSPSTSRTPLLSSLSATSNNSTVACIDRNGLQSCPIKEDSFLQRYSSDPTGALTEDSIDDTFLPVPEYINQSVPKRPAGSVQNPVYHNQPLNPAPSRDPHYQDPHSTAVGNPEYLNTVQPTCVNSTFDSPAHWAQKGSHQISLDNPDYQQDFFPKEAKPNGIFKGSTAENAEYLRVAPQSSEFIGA
- Assay method text: Biochemical EGFR inhibition assay (Caliper mobility shift), EGFR (d746-750)
- Condition set: biochemical Caliper mobility shift assay, EGFR Exon 19-del enzyme; read-out: Enz EGFR Exon 19-del IC50
pIC50: −log10 of the molar value.
Entries annotated with measured pIC50

Study these solved cases before continuing.
[[record]]
compound = "CC[C@H](Oc1cc(-c2cnn(C)c2)cc2ncnc(Nc3ccc4ncsc4c3F)c12)C1CN(C)C1 (single isomer, unassigned) [Example 390]"
measured_result = "< 7.30"

[[record]]
compound = "Cn1cc(-c2cc(OCC(=O)N3CC4(COC4)C3)c3c(Nc4ccc5ncsc5c4F)ncnc3c2)cn1"
measured_result = "≥ 8.00"

[[record]]
compound = "C[C@@H]1CN(c2cc(O[C@H](C)C3COC3)c3c(Nc4ccc5ncsc5c4F)ncnc3c2)CCN1 (single isomer, unassigned) [Example 100]"
measured_result = "≥ 8.00"

[[record]]
compound = "C[C@@H](Oc1cc(N2CCN(C)CC2)cc2ncnc(Nc3ccc4ncsc4c3F)c12)C1COC1 (single isomer, unassigned) [Example 95]"
measured_result = "≥ 8.00"

[[record]]
compound = "COc1nn(C)cc1-c1cc(O[C@@H]2CCN(C)C[C@H]2F)c2c(Nc3ccc4ncsc4c3)ncnc2c1 (single isomer, unassigned) [Example 359]"
measured_result = "≥ 8.00"


What pIC50 appears in the records for this compound with EGFR (d746-750) (Homo sapiens, UniProt P00533, DEL746-750)? COc1cc2ncnc(Nc3ccc4ncsc4c3)c2cc1N[C@H]1CCN(C)C[C@@H]1F
≥ 8.00

====

- System: EGFR (d746-750) (Homo sapiens, UniProt P00533, DEL746-750)
- Construct: purchased SignalChem E10-122JG
- Assay method text: Biochemical EGFR inhibition assay (Caliper mobility shift), EGFR (d746-750)
- Condition set: biochemical Caliper mobility shift assay, EGFR Exon 19-del enzyme; read-out: Enz EGFR Exon 19-del IC50
pIC50: −log10 of the molar value.
Reported metric: pIC50

Study these solved cases before continuing.
[[record]]
compound = "CC(C)(O)Cn1cc(-c2cc(OC3CCOCC3)c3c(Nc4ccc5ncsc5c4)ncnc3c2)cn1"
system = "EGFR (d746-750) (Homo sapiens, UniProt P00533, DEL746-750)"
measured_result = "≥ 8.00"

[[record]]
compound = "C[C@H](Oc1cc(-c2cnn(C)c2)cc2ncnc(Nc3ccc4ncsc4c3F)c12)C1COC1 (single isomer, unassigned)"
system = "EGFR (d746-750) (Homo sapiens, UniProt P00533, DEL746-750)"
measured_result = "≥ 8.00"

[[record]]
compound = "Cn1cc(-c2cc(O[C@@H]3CNC[C@H](F)C3)c3c(Nc4ccc5ncsc5c4)ncnc3c2)cn1 (single isomer, unassigned) [Example 334]"
system = "EGFR (d746-750) (Homo sapiens, UniProt P00533, DEL746-750)"
measured_result = "≥ 8.00"

[[record]]
compound = "C[C@@H](Oc1cc(-c2cnn(C)c2)cc2ncnc(Nc3ccc4ncsc4c3)c12)C1CN(C)C1 (single isomer, unassigned) [Example 384]"
system = "EGFR (d746-750) (Homo sapiens, UniProt P00533, DEL746-750)"
measured_result = "7.30 to 8.00"

[[record]]
compound = "Cn1cc(-c2cc(OC3CCN(C4COC4)CC3)c3c(Nc4ccc5ncsc5c4F)ncnc3c2)cn1"
system = "EGFR (d746-750) (Homo sapiens, UniProt P00533, DEL746-750)"
measured_result = "≥ 8.00"


Fill blank: measured pIC50 of the compound Cn1cc(-c2cc(O[C@H]3COC[C@H]3F)c3c(Nc4ccc5ncsc5c4)ncnc3c2)cn1 (racemic) is ____.
≥ 8.00

====

- System: intracellular phosphorylation of EGFR (Tyr1068) in PC-9 cells (Homo sapiens, UniProt P00533, DEL746-750)
- Assay method text: PC-9 pEGFR AlphaLISA assay
- Condition set: 4 hours incubation, read-out: Phos EGFR PC9 IC50
pIC50: −log10 of the molar value.
Reported metric: pIC50

[[record]]
compound = "CN1CC[C@H](Oc2cc(-c3cnn(C)c3)cc3ncnc(Nc4ccc5ncsc5c4)c23)[C@@H](O)C1 (single isomer, unassigned) [Example A35]"
reported_metric = "pIC50"
measured_result = "7.30 to 8.00"


Fill blank: measured pIC50 of the compound CC(Oc1cc(-c2cn(C)nc2OC(F)F)cc2ncnc(Nc3ccc4ncsc4c3)c12)C1COC1 (single isomer, unassigned) [Example 172] is ____.
7.30 to 8.00

Fill blank: measured pIC50 of the compound CN(C)C[C@@H](Oc1cc(-c2cnn(C)c2)cc2ncnc(Nc3ccc4ncsc4c3)c12)C(F)F (single isomer, unassigned) is ____.
≥ 8.00

Fill blank: measured pIC50 of the compound C[C@H](Oc1cc(N2CCN(C)C2=O)cc2ncnc(Nc3ccc4ncsc4c3)c12)C1COC1 (single isomer, unassigned) [Example 158] is ____.
7.30 to 8.00

Fill blank: measured pIC50 of the compound COCCN1CCC(Oc2cc(-c3cnn(C)c3)cc3ncnc(Nc4ccc5ncsc5c4)c23)CC1 is ____.
7.30 to 8.00

Fill blank: measured pIC50 of the compound COc1nn(C)cc1-c1cc(O[C@@H]2CCNC[C@@H]2F)c2c(Nc3ccc4ncsc4c3)ncnc2c1 is ____.
≥ 8.00

Fill blank: measured pIC50 of the compound CN1CC[C@H](Oc2cc(-c3cn(C)nc3OC(F)F)cc3ncnc(Nc4ccc5ncsc5c4)c23)[C@@H](F)C1 (single isomer, unassigned) [Example 368] is ____.
7.30 to 8.00

====

- System: intracellular phosphorylation of EGFR (Tyr1068) in PC-9 cells (Homo sapiens, UniProt P00533, DEL746-750)
- Assay method text: PC-9 pEGFR AlphaLISA assay
- Condition set: 4 hours incubation, read-out: Phos EGFR PC9 IC50
pIC50: −log10 of the molar value.
Reported metric: pIC50

[[record]]
molecule = "C[C@@H](Oc1cc(-c2cnn(C)c2)cc2ncnc(Nc3ccc4ncsc4c3)c12)[C@H](C)N(C)C (single isomer, unassigned) [Example 145]"
reported_metric = "pIC50"
measured_result = "≥ 8.00"

[[record]]
molecule = "Cn1cc(-c2cc(OC(CO)CO)c3c(Nc4ccc5ncsc5c4)ncnc3c2)cn1"
reported_metric = "pIC50"
measured_result = "7.30 to 8.00"

[[record]]
molecule = "COc1cn(C)nc1-c1cc(O[C@H](C)C2COC2)c2c(Nc3ccc4ncsc4c3F)ncnc2c1 (single isomer, unassigned) [Example 80]"
reported_metric = "pIC50"
measured_result = "≥ 8.00"

[[record]]
molecule = "COc1nn(C)cc1-c1cc(OC2CC2)c2c(Nc3ccc4ncsc4c3)ncnc2c1"
reported_metric = "pIC50"
measured_result = "≥ 8.00"

[[record]]
molecule = "C[C@@H]1CN(C)CCN1C(=O)Nc1cc2c(Nc3ccc4ncsc4c3)ncnc2cc1-c1ccn(C)n1"
reported_metric = "pIC50"
measured_result = "≥ 8.00"


Fill blank: measured pIC50 of the molecule Cn1cc(-c2cc(OC[C@H]3CCCO3)c3c(Nc4ccc5ncsc5c4)ncnc3c2)cn1 is ____.
7.30 to 8.00

Fill blank: measured pIC50 of the molecule C[C@H]1COCC[C@H]1Oc1cc(-c2cnn(C)c2)cc2ncnc(Nc3ccc4ncsc4c3)c12 (racemic) is ____.
7.30 to 8.00

Fill blank: measured pIC50 of the molecule C[C@@H](Oc1cc(N2CCN(C)[C@@H]3C[C@@H]32)cc2ncnc(Nc3ccc4ncsc4c3)c12)C1COC1 (single isomer, unassigned) is ____.
7.30 to 8.00

Fill blank: measured pIC50 of the molecule C[C@@H]1CN(c2cc(O[C@@H](C)CN(C)C)c3c(Nc4ccc5ncsc5c4)ncnc3c2)C[C@H](C)O1 (single isomer, unassigned) is ____.
7.30 to 8.00

Fill blank: measured pIC50 of the molecule COc1cn(C)nc1-c1cc(O[C@H]2CCCN(C)C2)c2c(Nc3ccc4ncsc4c3F)ncnc2c1 is ____.
7.30 to 8.00

Fill blank: measured pIC50 of the molecule C[C@@H](Oc1cc(-c2cnn(C)c2)cc2ncnc(Nc3ccc4ncsc4c3)c12)C(CO)CO is ____.
≥ 8.00

Fill blank: measured pIC50 of the molecule Cn1cc(-c2cc(OCC3COC3)c3c(Nc4ccc5ncsc5c4F)ncnc3c2)cn1 is ____.
≥ 8.00

Fill blank: measured pIC50 of the molecule C[C@H](CN(C)C)Oc1cc(N2CC3CC(C2)O3)cc2ncnc(Nc3ccc4ncsc4c3F)c12 is ____.
≥ 8.00
